pIC50: −log10 of the molar value.
Heads up, these molecules all have pIC50 values measured for PAK2 (PAK65) (Homo sapiens).

Check out these entries, answers already filled in.
molecule	pIC50
Cc1nc(-c2cc(Cl)c(-c3cc4cnc(Nc5ccc(C6CCN(C)CC6)cc5)nc4n(C)c3=O)cc2F)no1	> 7.30
CCn1c(=O)c(-c2ccc(-c3noc(C)n3)cc2Cl)cc2cnc(Nc3ccc(CCN4CCCC4)cc3)nc21	> 7.30
CNC(=O)c1cc(-c2ccc(-c3cc4cnc(Nc5ccc(C6CCN(C)CC6)cc5)nc4n(C)c3=O)c(Cl)c2)ccn1	6.30 to 7.30
CCn1c(=O)c(-c2sc(C)nc2C)cc2cnc(Nc3ccc(N4CCN(C)CC4)cc3)nc21	< 5.30

The molecule CCn1c(=O)c(-c2ccc(-c3cccnc3)cc2Cl)cc2cnc(Nc3ccc(N4CCN(C(C)C)CC4)cc3)nc21 [drawing 655] , when measured on PAK2 (PAK65) (Homo sapiens), yielded pIC50 of > 7.30

The molecule `CCn1c(=O)c(-c2ccc(-c3ccc(F)nc3C)cc2Cl)cc2cnc(Nc3ccc(C4CCNCC4)c(F)c3)nc21` , when measured on PAK2 (PAK65) (Homo sapiens), yielded pIC50 of 6.30 to 7.30

The molecule `CCn1c(=O)c(-c2ccc(-c3cscn3)cc2Cl)cc2cnc(Nc3ccc(N4CCN(C)CC4)cc3)nc21` , when measured on PAK2 (PAK65) (Homo sapiens), yielded pIC50 of 6.30 to 7.30

The molecule `CCn1c(=O)c(-c2ccc(-c3cc(N(C)C)ncn3)cc2Cl)cc2cnc(Nc3ccc(C4CCN(C)CC4)cc3)nc21` , when measured on PAK2 (PAK65) (Homo sapiens), yielded pIC50 of 6.30 to 7.30

The molecule `CCn1c(=O)c(-c2cc(C)c(-c3cccnc3C)cc2Cl)cc2cnc(Nc3ccc(C4CCN(C)CC4)cc3)nc21` , when measured on PAK2 (PAK65) (Homo sapiens), yielded pIC50 of > 7.30

The molecule `CN1CCC(c2ccc(Nc3ncc4cc(-c5cc(-c6ccccn6)ccc5Cl)c(=O)n(C)c4n3)cc2)CC1` , when measured on PAK2 (PAK65) (Homo sapiens), yielded pIC50 of 5.30 to 6.30

The molecule `CCn1c(=O)c(-c2ccc(-c3cc(C)ncn3)cc2Cl)cc2cnc(Nc3ccc(C4CCN(C)CC4)cc3)nc21` , when measured on PAK2 (PAK65) (Homo sapiens), yielded pIC50 of 6.30 to 7.30

The molecule `CCn1c(=O)c(-c2ccc(-c3cccnc3C)cc2Cl)cc2cnc(Nc3ccc(CCN(C)C)cc3)nc21` , when measured on PAK2 (PAK65) (Homo sapiens), yielded pIC50 of > 7.30

###

List of pIC50 values.
- measured-on: PAK1 (Homo sapiens)
- Sequence (Q13153 whole entry): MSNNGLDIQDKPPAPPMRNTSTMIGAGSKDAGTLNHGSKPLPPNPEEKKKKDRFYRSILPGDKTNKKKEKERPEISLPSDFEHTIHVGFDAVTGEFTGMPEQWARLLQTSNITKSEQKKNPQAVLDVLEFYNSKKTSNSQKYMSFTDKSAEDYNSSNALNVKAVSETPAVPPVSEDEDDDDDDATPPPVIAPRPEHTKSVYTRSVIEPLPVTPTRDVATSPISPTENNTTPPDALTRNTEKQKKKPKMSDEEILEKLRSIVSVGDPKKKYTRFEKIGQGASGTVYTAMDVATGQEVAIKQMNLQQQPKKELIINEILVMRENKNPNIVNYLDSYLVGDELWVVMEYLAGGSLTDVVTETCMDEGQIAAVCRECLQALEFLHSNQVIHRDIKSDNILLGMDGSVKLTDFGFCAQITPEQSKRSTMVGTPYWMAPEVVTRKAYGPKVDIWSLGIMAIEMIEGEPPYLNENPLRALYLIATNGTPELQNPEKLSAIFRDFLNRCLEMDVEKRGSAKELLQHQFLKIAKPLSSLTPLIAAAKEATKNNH
- test: In vitro PAK inhibition assay (SelectScreen, Ser/Thr 19 peptide)
- Format: biochemical
pIC50: −log10 of the molar value.

smi	pIC50
CC(=O)N(C)c1cc(-c2cc3cnc(Nc4ccc(CCN(C)C)cc4)nc3n(C)c2=O)c(Cl)cc1-c1cccnc1	6.30 to 7.30
CN(C)CCc1ccc(Nc2ncc3cc(-c4ccc(-c5cccnc5F)cc4Cl)c(=O)n(C)c3n2)cc1	> 7.30

Kindly consider the entry below.
// recorded pIC50 for `CCn1c(=O)c(-c2ccc(C3CC3)cc2Cl)cc2cnc(Nc3ccc(N4CCN(C)CC4)cc3)nc21` : 6.30 to 7.30
